- system-under-test: APEHSs
- assay-comment: Inhibition of S. solfataricus APEH (APEHSs), Ac-Leu-pNA substrate
- study-conditions: Lineweaver–Burk equation, Ac-Leu-pNA; read-out: Ki towards APEHSs
recorded-metric: pKi
By convention, pKi is the negative base-10 log of a molar concentration.

Any idea what pKi was measured for CCCCC/C=C\C=C\CCCCCCCCC(=O)O [t10c12-CLA, trans10-cis12 CLA] ?
3.85

----------
- Test system: APEHSs
- assay-comment: Inhibition of S. solfataricus APEH (APEHSs), Ac-Leu-pNA substrate
- Assay type: biochemical, Sulfolobus solfataricus
- study-conditions: Ac-Leu-pNA 0.1 mM, 25 mM Tris-HCl pH 7.5, pre-incubated 30 min at 80°C; mean ± SD; read-out: IC50 towards APEHSs
recorded-metric: pIC50
By convention, pIC50 is the negative base-10 log of a molar concentration.

Any idea what pIC50 was measured for CCCCC/C=C\C=C\CCCCCCCCC(=O)O [t10c12-CLA, trans10-cis12 CLA] ?
4.10

// data source = paper PMC3189933
